# experimentalDetails: Human liver microsomal stability of compound in microsomal protein, PBS buffer pH 7.4, NADPH, glucose-6-phosphate and glucose-6-phosphate dehydrogenase media. Aliquotes were taken at 5 time points and after stopping the reaction, supernatants were analyzed using HPLC coupled with a tandem mass spectrometer. The elimination constant, half-life, and intrinsic clearance are determined as results using linear regression analysis. The assay has been performed by Enamine biological services, Bienta Ltd.The protocol is publicly available: dx.doi.org/10.17504/protocols.io.5qpvokdb9l4o/v1
# Format: ADME, microsomes, Microsome
# assaySetup: liver microsomes
measuredEndpoint: half-life (min)

Form field half-life, entry CCNC(=O)c1cc2c(N[C@@H](c3ccc4c(c3)S(=O)(=O)CCO4)C(C)C)ncnc2[nH]1 : 26.2

Form field half-life, entry Cc1nn(C)cc1-c1cc2c(N[C@H](c3ccc4c(c3)S(=O)(=O)CCC4)C(C)C)ncnc2[nH]1 : 6.1

Form field half-life, entry CCNC(=O)c1cc2c(N[C@H](c3ccc4c(c3)OCCO4)C(C)C)ncnc2[nH]1 : 24.8

(I) CC(C)[C@H](Nc1ncnc2[nH]c(-c3cnn(CC(=O)N(C)C)c3)cc12)c1ccc2c(c1)S(=O)(=O)CCC2
(II) CC(C)[C@@H](Nc1ncnc2[nH]c(C(=O)N[C@@H]3CCN(C)C3)cc12)c1ccc2c(c1)S(=O)(=O)CCC2
(III) CNCc1cc(-c2cc3c(N[C@@H](c4ccc5c(c4)S(=O)(=O)NCC5)C(C)C)ncnc3[nH]2)co1
Output the entries ranked by half-life from maximum down to minimum. Answer format: the labels, ordered as requested.
II, III, I
(II: 83.8 min, III: 35.9 min, I: 18.1 min)
